Data credit: the supplement of paper PMC7877785

experiment: self-splicing fitness, log relative to wild type (ln ratio); higher = more splicing; Tetrahymena group I intron in knt gene, E. coli kanamycin selection, DiMSum; sequences stand for … in CUCUCU…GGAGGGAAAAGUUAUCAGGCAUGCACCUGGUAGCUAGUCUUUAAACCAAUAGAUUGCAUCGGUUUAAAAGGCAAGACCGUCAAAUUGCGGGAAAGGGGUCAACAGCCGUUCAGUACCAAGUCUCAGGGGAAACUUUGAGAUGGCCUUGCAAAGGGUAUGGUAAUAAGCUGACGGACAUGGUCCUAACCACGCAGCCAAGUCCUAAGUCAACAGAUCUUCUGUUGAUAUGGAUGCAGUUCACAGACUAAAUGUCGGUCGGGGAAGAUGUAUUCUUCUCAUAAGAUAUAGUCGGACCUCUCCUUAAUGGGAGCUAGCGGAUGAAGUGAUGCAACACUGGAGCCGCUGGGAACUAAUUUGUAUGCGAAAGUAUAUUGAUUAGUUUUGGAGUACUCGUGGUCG; settings: 30 °C;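 further: selection with 25 µg/mL kanamycin versus none on LB agar overnight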
Assay Metric: self-splicing fitness (ln)

1. CAAGAGCAAUAUUACGGACG; -0.541
2. GCUCAGCAAUAUUACGGAUC; -0.0202
3. CUACAGCAAUAUUACGCGUU; -4.43
4. UCUGAGCAAUAUUACGGUGC; -4.39
5. GAGAAGCAAUAUUACGGUAG; -3.75
6. ACCUAGCAAUAUUACGGCUG; -4.76
7. CCAUAGCAAUAUUACGUGAA; -3.25
8. CGUAAGCAAUAUUACGCACA; -1.37

====

test: self-splicing fitness, log relative to wild type (ln ratio); higher = more splicing; Tetrahymena group I intron in knt gene, E. coli kanamycin selection, DiMSum; sequences stand for … in CUCUCU…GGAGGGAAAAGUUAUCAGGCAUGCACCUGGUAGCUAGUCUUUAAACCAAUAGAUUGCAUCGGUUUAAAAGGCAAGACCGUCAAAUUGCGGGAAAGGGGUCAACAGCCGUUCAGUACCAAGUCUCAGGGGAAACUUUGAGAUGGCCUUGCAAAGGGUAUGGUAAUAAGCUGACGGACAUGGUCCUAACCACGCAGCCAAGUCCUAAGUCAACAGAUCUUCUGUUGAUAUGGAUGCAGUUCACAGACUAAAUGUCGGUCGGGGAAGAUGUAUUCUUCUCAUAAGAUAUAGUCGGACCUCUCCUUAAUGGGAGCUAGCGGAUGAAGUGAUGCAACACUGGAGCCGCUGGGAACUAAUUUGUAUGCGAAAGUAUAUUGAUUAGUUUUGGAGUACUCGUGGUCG; conditions: 37 °C
Entry class follows self-splicing fitness (ln): lower range: < -2; middle range: ≥ -2 and < -1; upper range: ≥ -1

1. GUUUAGCAAUAUUACGAGUC; upper range
2. UGGGAGCAAUAUUACGACGG; middle range
3. GCCUAGCAAUAUUACGGUCC; middle range
4. AACUAGCAAUAUUACGUCGG; lower range
5. AAUUAGCAAUAUUACGUUAU; middle range
6. UAAGAGCAAUAUUACGCUUC; lower range
7. AGAUAGCAAUAUUACGAGGG; middle range
8. AUCCAGCAAUAUUACGCAUG; upper range
9. CCGAAGCAAUAUUACGAAUC; lower range
10. CCCGAGCAAUAUUACGGUAU; lower range
11. UCUUAGCAAUAUUACGUUCU; lower range
12. GCGAAGCAAUAUUACGAUGG; upper range
13. ACCCAGCAAUAUUACGUCAU; upper range
14. UAGAAGCAAUAUUACGUAAU; middle range
15. UUACAGCAAUAUUACGUGCA; upper range
16. CACAAGCAAUAUUACGUAGU; middle range
17. UAGGAGCAAUAUUACGGCAC; lower range
18. AGAAAGCAAUAUUACGAGUA; middle range
19. UAUGAGCAAUAUUACGUGAU; lower range
20. ACUAAGCAAUAUUACGUGUC; lower range
21. CGCGAGCAAUAUUACGUAGG; upper range
22. UAUAAGCAAUAUUACGAUGC; lower range
23. GAGUAGCAAUAUUACGCUUA; upper range
24. GCUGAGCAAUAUUACGGUCC; upper range
25. GUUCAGCAAUAUUACGGUGA; middle range
26. AAGAAGCAAUAUUACGACGA; upper range
27. GCGAAGCAAUAUUACGUAGG; middle range
28. ACAAAGCAAUAUUACGGACC; middle range
29. UUGAAGCAAUAUUACGCCAU; middle range
30. CCCGAGCAAUAUUACGUACU; middle range

====

assay: self-splicing fitness, log relative to wild type (ln ratio); higher = more splicing; Tetrahymena group I intron in knt gene, E. coli kanamycin selection, DiMSum; sequences stand for … in CUCUCU…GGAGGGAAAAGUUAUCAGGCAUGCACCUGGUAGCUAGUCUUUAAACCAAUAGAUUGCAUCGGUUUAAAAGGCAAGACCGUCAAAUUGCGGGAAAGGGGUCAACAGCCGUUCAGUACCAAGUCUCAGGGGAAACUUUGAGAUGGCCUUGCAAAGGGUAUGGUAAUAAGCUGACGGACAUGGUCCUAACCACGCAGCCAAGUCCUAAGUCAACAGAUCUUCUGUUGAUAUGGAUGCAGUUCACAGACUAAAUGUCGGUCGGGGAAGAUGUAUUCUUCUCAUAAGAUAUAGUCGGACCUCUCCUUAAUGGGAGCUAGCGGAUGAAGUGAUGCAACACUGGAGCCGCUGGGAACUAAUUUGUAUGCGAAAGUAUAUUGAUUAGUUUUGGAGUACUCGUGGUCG; conditions: 37 °C
Rule: self-splicing fitness (ln) of -2 or more gives yes; anything lower gives no.

1. UGAUAGCAAUAUUACGAAAA; no
2. GGUGAGCAAUAUUACGGUGA; yes
3. AAUAAGCAAUAUUACGCUCG; yes
4. UCGAAGCAAUAUUACGUCUA; yes
5. UGGAAGCAAUAUUACGAUCU; yes
6. GUACAGCAAUAUUACGUAUU; no
7. CCAUAGCAAUAUUACGGGAC; no
8. GGCCAGCAAUAUUACGACCA; yes
9. GGGUAGCAAUAUUACGGAGC; yes
10. CUAGAGCAAUAUUACGACGA; yes
11. GUACAGCAAUAUUACGGCCU; yes
12. AGCGAGCAAUAUUACGCAAC; no
13. CCGAAGCAAUAUUACGUUGA; no
14. UGACAGCAAUAUUACGCAUC; yes
15. GCGAAGCAAUAUUACGGGGC; yes
16. GAAAAGCAAUAUUACGGGGC; no
17. AGAUAGCAAUAUUACGGUUU; yes
18. CACCAGCAAUAUUACGCCCA; yes
19. ACCUAGCAAUAUUACGGUAA; yes
20. UUAUAGCAAUAUUACGGAGA; yes
21. AGAAAGCAAUAUUACGAAGU; no
22. CGGCAGCAAUAUUACGAUUA; no
23. GUACAGCAAUAUUACGGGCC; yes
24. GCCUAGCAAUAUUACGGAUU; yes
25. GGCAAGCAAUAUUACGAUGC; yes
26. CGCGAGCAAUAUUACGUUAG; yes
27. ACCUAGCAAUAUUACGAGCC; no
28. CGUGAGCAAUAUUACGGAAG; yes
29. CAAUAGCAAUAUUACGUAUC; no
30. UUUAAGCAAUAUUACGUCUA; yes

====

Recorded measurements of self-splicing fitness (ln), one per entry
test: self-splicing fitness, log relative to wild type (ln ratio); higher = more splicing; Tetrahymena group I intron in knt gene, E. coli kanamycin selection, DiMSum; sequences stand for … in CUCUCU…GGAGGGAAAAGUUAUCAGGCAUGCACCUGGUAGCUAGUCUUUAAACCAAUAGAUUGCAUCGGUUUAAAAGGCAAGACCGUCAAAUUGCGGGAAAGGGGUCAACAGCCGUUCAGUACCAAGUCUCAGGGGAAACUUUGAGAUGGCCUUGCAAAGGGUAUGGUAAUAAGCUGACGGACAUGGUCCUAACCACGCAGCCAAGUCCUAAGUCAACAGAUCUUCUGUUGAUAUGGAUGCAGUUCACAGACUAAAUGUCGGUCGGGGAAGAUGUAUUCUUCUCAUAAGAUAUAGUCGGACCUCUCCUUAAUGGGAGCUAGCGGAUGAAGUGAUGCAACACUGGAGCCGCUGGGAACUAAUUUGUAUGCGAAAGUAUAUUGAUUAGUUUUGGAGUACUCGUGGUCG; conditions: 30 °C
Assay Metric: self-splicing fitness (ln)

1. ACGCAGCAAUAUUACGAUCA; -1.66
2. UCUGAGCAAUAUUACGGCGC; -3.06
3. CGCAAGCAAUAUUACGUAUA; -3.79
4. UUAGAGCAAUAUUACGGUGA; -0.868
5. UUUAAGCAAUAUUACGGUUA; -1.35
6. CGUGAGCAAUAUUACGGCGC; -3.69
7. CGAAAGCAAUAUUACGCCAU; -3.31
8. CUUCAGCAAUAUUACGCGAC; -2.88
